- System: A498 renal
- experimental protocol: NCI tumour cell line growth inhibition, 48 h
// reported TGI for each item listed

{"molecule": "O=C(Nc1ccccc1)c1cc2c(cc1Cl)SC(NNCCO)=NS2(=O)=O", "TGI": "> 100 µM"}
{"molecule": "O=c1c2cc(Br)ccc2[nH]c(=S)n1-c1ccccc1", "TGI": "> 100 µM"}
{"molecule": "COC1=CCC2=C(CCN(C(=O)C3CC3)C2Cc2ccc(OC)c(O)c2)C1 (stereo not given)", "TGI": "> 100 µM"}
{"molecule": "[CH3][Sn]([CH3])([CH3])[O]C(=O)C(O)c1ccccc1 (stereo not given)", "TGI": "63.9 µM"}
{"molecule": "c1cc2ccc3cc2cc1CNCCOCCNCc1ccc2ccc(cc2c1)CNCCOCCNC3", "TGI": "> 100 µM"}
{"molecule": "CC1(C)C(=O)CCC(=O)C(C)(C)C2=CC=C(O2)C(C)(C)C(=O)CCC(=O)C(C)(C)C2=CC=C1O2", "TGI": "> 100 µM"}
{"molecule": "O=C(O)/C(=C/c1ccccc1[N+](=O)[O-])c1cccs1", "TGI": "> 100 µM"}
{"molecule": "O=C(Cc1nc2ccc(C(=O)c3ccccc3)cc2[nH]c1=O)C(=O)Nc1ccc(C(F)(F)F)cc1[N+](=O)[O-]", "TGI": "> 100 µM"}
{"molecule": "COC(=O)[C@H]1CC(=O)C=C2CCCC21 (stereo not given in full)", "TGI": "> 100 µM"}
{"molecule": "O=C(CCCCCNC1=CC(=O)c2ccccc2C1=O)NCCC[Te]c1ccccc1", "TGI": "1.66 µM"}

----------
- System: SK-MEL-28 melanoma
- experimental protocol: NCI tumour cell line growth inhibition, 48 h
property name: GI50

{"molecule": "O=C1NC(=O)C(N2CCc3ccccc32)=C1c1ccc(Cl)cc1", "value": "> 25 µM"}
{"molecule": "Cc1cc(Br)c2nsnc2c1[N+](=O)[O-]", "value": "3.34 µM"}
{"molecule": "CC(=O)NC1CCCN(O)C(=O)/C=C(/C)CCOC(=O)C(NC(C)=O)CCCN(O)C(=O)/C=C(/C)CCOC(=O)C(NC(C)=O)CCCN(O)C(=O)/C=C(/C)CCOC1=O.[Fe] (stereo not given)", "value": "> 100 µM"}
{"molecule": "CCc1ccc(Oc2nccc(-c3c(-c4ccc(F)cc4)ncn3C3CCNCC3)n2)cc1", "value": "4.73 µM"}
{"molecule": "C/C(=C\\CCc1ccsc1)CC/C=C(\\C)CCCN1CCN(CCO)CC1", "value": "1.87 µM"}
{"molecule": "O=C(N/N=C/c1ccncc1)c1ccc(C(F)(F)F)nc1Nc1cccc(C(F)(F)F)c1", "value": "3.48 µM"}
{"molecule": "Cc1cc(NS(=O)(=O)c2ccc(NC(=O)COc3ccc(-c4cc5ccccc5[nH]4)cc3)cc2)no1", "value": "1.55 µM"}
{"molecule": "NS(=O)(=O)c1cccc(-c2cc3ccncc3cc2OCc2ccccc2)c1", "value": "5.85 µM"}
{"molecule": "CCOP(=O)(CCN1CCN(CCCCCOc2cc3c(cc2OC)C(=O)N2CCC[C@H]2C=N3)CC1)OCC", "value": "6.35 µM"}
{"molecule": "O=C1c2ccccc2-c2c1c1c(O)cccc1n2CCCc1ccccc1", "value": "> 100 µM"}

----------
- System: SNB-75 CNS
- experimental protocol: NCI tumour cell line growth inhibition, 48 h
// reported GI50 for each item listed
property name: GI50

{"compound": "CCCCCCCCCCCCNC(=O)[C@H]1CSC(c2cc(Br)cs2)N1 (some centres undefined)", "target entity": "SNB-75 CNS", "value": "0.851 µM"}
{"compound": "COc1ccccc1N(C(C)=O)C1=C(Cl)C(=O)c2ccccc2C1=O", "target entity": "SNB-75 CNS", "value": "1.72 µM"}
{"compound": "COC(=O)c1c2c(c(C)[n+]([O-])c1C)C(=O)C=C(NCc1ccc(Br)cc1)C2=O", "target entity": "SNB-75 CNS", "value": "1.58 µM"}
{"compound": "CC(=O)NC1CCCN(O)C(=O)/C=C(/C)CCOC(=O)C(NC(C)=O)CCCN(O)C(=O)/C=C(/C)CCOC(=O)C(NC(C)=O)CCCN(O)C(=O)/C=C(/C)CCOC1=O.[Fe] (centres undefined)", "target entity": "SNB-75 CNS", "value": "> 100 µM"}

----------
- System: HCT-116 colon
- experimental protocol: NCI tumour cell line growth inhibition, 48 h

{"molecule": "O=S1CCN(Cc2ccc(-c3ccc4ncnc(Nc5ccc(OCc6ccccc6)c(F)c5)c4c3)o2)CC1", "TGI": "> 25 µM"}
{"molecule": "c1cc2ccc3cc2cc1CNCCOCCNCc1ccc2ccc(cc2c1)CNCCOCCNC3", "TGI": "> 100 µM"}
{"molecule": "CCOC(=O)C(Cc1ccc2c(c1)CCC2)Cc1ccc2c(c1)CCC2", "TGI": "> 100 µM"}
{"molecule": "CN(C(=O)C12C3C4C1C1C2C3C41C(=O)N(C)C(C)(C)C)C(C)(C)C (stereo not given)", "TGI": "> 50 µM"}
{"molecule": "COc1ccccc1N(C(C)=O)C1=C(Cl)C(=O)c2ccccc2C1=O", "TGI": "2.18 µM"}
{"molecule": "N=c1oc2ccc([N+](=O)[O-])cc2cc1C(=O)Nc1ccccn1", "TGI": "> 100 µM"}
{"molecule": "Cn1c2c(c3ccccc31)CC(=O)N1CCCC(C1)CC21OCCO1 (stereo not given)", "TGI": "> 100 µM"}
{"molecule": "Cc1ccccc1C(=O)NC(O)(C(F)(F)F)C(F)(F)F", "TGI": "> 100 µM"}
{"molecule": "COc1ccc(/C=N/NS(=O)(=O)c2ccc(/C=C3\\NC(=O)N(C)C3=O)cc2)cc1", "TGI": "> 100 µM"}
{"molecule": "N=C1/C(=C/c2ccccc2)C(=O)N=C2SC=NN12", "TGI": "> 100 µM"}
{"molecule": "O=C(Nc1ccc(Cl)cc1Cl)c1cc2nc3ccccc3c(=O)n2c2ccccc12", "TGI": "> 10 µM"}
{"molecule": "Cc1ccc(-c2c3c(N)nc(-c4ccncc4)nc3nc3c2c(C)nn3-c2ccccc2)cc1", "TGI": "11.1 µM"}
{"molecule": "CC[C@@]1(O)C(=O)OCc2c1cc1n(c2=O)Cc2cc3c(Cl)c4c(cc3nc2-1)OCO4", "TGI": "> 100 µM"}
{"molecule": "CCc1ccc(Oc2nccc(-c3c(-c4ccc(F)cc4)ncn3C3CCNCC3)n2)cc1", "TGI": "13.9 µM"}
{"molecule": "CC(=O)C1=C(C)N(c2ccc(C)cc2)C2(O)C=CC(=O)C3=C(O)c4ccccc4C(=O)C312 (stereo not given)", "TGI": "> 100 µM"}
{"molecule": "Cc1ccc(C)c(NC(=O)/C(=N\\N)C(c2cnc3ccc([N+](=O)[O-])cc3n2)[N+](=O)[O-])c1 (stereo not given)", "TGI": "> 100 µM"}
{"molecule": "COc1ccc(Oc2nc(Nc3ccc(N4CCOCC4)cc3)ncc2NC(=O)Nc2cc(OC)cc(OC)c2)cc1", "TGI": "3.27 µM"}
{"molecule": "O=C(CCCCCNC1=CC(=O)c2ccccc2C1=O)NCCC[Te]c1ccccc1", "TGI": "0.98 µM"}
{"molecule": "COc1cc(-c2nccc3[nH]c(-c4cccc5[nH]ccc45)nc23)cc(OC)c1OC", "TGI": "0.0202 µM"}
{"molecule": "CC(C)[Si](Oc1cc2c3c(ccc2c(O)c1[C@@H](C)CO[Si](C)(C)C(C)(C)C)C(C)(C)CCC3)(C(C)C)C(C)C", "TGI": "> 100 µM"}

----------
// reported TGI for each item listed
- System: NCI-H460 lung
- experimental protocol: NCI tumour cell line growth inhibition, 48 h
property name: TGI

{"molecule": "CSc1ncc2c(C#N)c3ccccn3c(=O)c2n1", "value": "> 100 µM"}
{"molecule": "Cc1nn2c(=O)n(-c3cccc(-n4nnc5c(-c6ccccc6)c(C)nn5c4=O)c3C)nnc2c1-c1ccccc1", "value": "50.1 µM"}
{"molecule": "CC(=O)C1=C(C)N(c2ccc(C)cc2)C2(O)C=CC(=O)C3=C(O)c4ccccc4C(=O)C312 (stereo not given)", "value": "> 100 µM"}
{"molecule": "C[C@@H](Oc1cc(-c2cnn(C3CC4(CNC4)C3)c2)cnc1N)c1c(Cl)ccc(F)c1Cl", "value": "13.7 µM"}
{"molecule": "NS(=O)(=O)c1cccc(-c2cc3ccncc3cc2OCc2ccccc2)c1", "value": "> 25 µM"}
{"molecule": "N=C1/C(=C/c2ccccc2)C(=O)N=C2SC=NN12", "value": "> 100 µM"}
{"molecule": "N#Cc1c(N)nc2c(N=Nc3ccccc3)c(N)nn2c1Nc1ccccc1", "value": "44.3 µM"}
{"molecule": "COc1ccccc1NC(=O)CC(=O)n1nc(-c2ccccc2)c(N=Nc2ccccc2[N+](=O)[O-])c1-c1ccccc1", "value": "> 100 µM"}
{"molecule": "CC1=C(S(=O)c2ccc(C)cc2)CCC2(CCCCO2)O1 (stereo not given)", "value": "> 100 µM"}
{"molecule": "CNC(=O)C1CCC(=O)N1CN(C(C)=O)c1ccccc1 (stereo not given)", "value": "> 100 µM"}
